EXPERIMENTAL_TARGET: T1, wild-type rat apelin receptor-EGFP (rat, UniProt Q9JHG3 1-377, EGFP is fused at the C-terminal (intracellular) end of the receptor. It is not included in the letters.)
T1 sequence: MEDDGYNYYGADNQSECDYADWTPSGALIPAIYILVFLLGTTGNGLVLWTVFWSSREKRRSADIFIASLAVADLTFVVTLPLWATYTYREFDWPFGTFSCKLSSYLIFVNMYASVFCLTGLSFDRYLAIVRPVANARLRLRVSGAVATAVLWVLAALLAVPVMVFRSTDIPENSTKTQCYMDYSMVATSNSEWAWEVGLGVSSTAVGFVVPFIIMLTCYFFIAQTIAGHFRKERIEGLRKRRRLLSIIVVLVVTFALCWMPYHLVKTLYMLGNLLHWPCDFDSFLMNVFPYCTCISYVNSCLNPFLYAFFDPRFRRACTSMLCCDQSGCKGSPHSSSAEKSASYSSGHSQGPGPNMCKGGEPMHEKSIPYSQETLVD
MEASUREMENT_PROTOCOL: cell-based or functional assay
Where no end group is shown, it is not given here.
Recorded log10 of inhibition of forskolin-induced cAMP production IC50, one value per entry.
Values below are the log10 of the recorded inhibition of forskolin-induced cAMP production IC50, with nM as the unit.

| BINDER | RECORDED_MEASUREMENT |
| --- | --- |
| RPRLSXKAPXPF (HELM PEPTIDE1{[ac].R.P.R.[dL].S.[Aib].K.[dA].P.[Nle].P.[O=C(O)[C@H](Cc1ccc(Br)cc1)N[*:1]]}$$$$V2.0; SMILES CCCC[C@H](NC(=O)[C@@H]1CCCN1C(=O)[C@@H](C)NC(=O)[C@H](CCCCN)NC(=O)C(C)(C)NC(=O)[C@H](CO)NC(=O)[C@@H](CC(C)C)NC(=O)[C@H](CCCNC(=N)N)NC(=O)[C@@H]1CCCN1C(=O)[C@H](CCCNC(=N)N)NC(C)=O)C(=O)N1CCC[C@H]1C(=O)N[C@@H](Cc1ccc(Br)cc1)C(=O)O) [P26] | 0.64 |
| XRPRLSXKGPMPF (pGlu at 1; Aib (α-aminoisobutyric acid) at 7) [pE13F(Aib^7)] | 0.08 |
| XRPRLSHKGPXPF (pGlu at 1; Nle (norleucine) at 11) [pE13F(Nle^11)] | 0.00 |
| XRPRLSHKAPMPF (pGlu at 1; D-Ala at 9) [pE13F(D-Ala^9)] | 1.63 |

Consider now this further binder.
log10 of inhibition of forskolin-induced cAMP production IC50 recorded for this binder, Ac-RPRLSHKGPMPF [Ac-R12F] , is 0.38
